testDescription: NCI Yeast Anticancer Drug Screen. Data for the sgs1 mgt1 strain (AID 161)
particulars: S. cerevisiae sgs1 mgt1 strain, at 5.0 µM (retest, dose inferred, filed as 0.5)
About 79,000 compounds went through this panel and 15% of them were active in at least one assay; those are over-represented in the sample as a whole. Calls of active or inactive are those of the source. Rule as the data show it: active = growth inhibition above about 70%; inactive = the rest.
Labels: active, inactive

compound	class
C/C=C/C1=C(Cl)C(=O)[C@@H](Cl)[C@@]1(O)C(=O)OC	active
O=C(CCl)Oc1ccc(Sc2ccc(OC(=O)CCl)cc2)cc1	inactive
CCCn1cnc2c(SCc3ccc(Cl)cc3Cl)nc(N)nc21	inactive
COc1ccc(C(c2ccc(OC)c(OC)c2)C(Cl)(Cl)Cl)cc1OC	inactive
COC(OC)(c1ccccc1)C(Br)Br	inactive
CN(C)C(=O)N(C)/N=C/c1ccc([N+](=O)[O-])o1	inactive
ClCc1c(-c2ccccc2)oc(-c2ccccc2)c1CCl	inactive
CCOC(=O)c1c(Br)c(-c2ccc(Br)cc2)c(Br)n1C	inactive
O=C1C(c2ccccc2)CS(=O)(=O)CC1c1ccccc1 (centres undefined)	inactive
C/C(=N\O)c1ccc2c3c(ccc([N+](=O)[O-])c13)CC2	inactive
CCCCCCCCCCCCNC(=O)OCC(C)O (centres undefined) (tested in a mixture with another compound)	active
CC=CCOc1cc(NC(=S)OC(C)C)ccc1Cl (mixture of isomers)	inactive
Cc1ccc(NC(=O)Oc2ccc(C(C)(C)C)cc2Br)cc1NC(=O)Oc1ccc(C(C)(C)C)cc1Br	inactive
O=C1OCCN1/N=C/c1ccc([N+](=O)[O-])o1	inactive
S=C(Nc1ccccc1)[S][Sb]([S]C(=S)Nc1ccccc1)[c]1ccccc1	inactive
CCCC/C=C1/CCC(CN(C)C)C1=O (centres undefined)	inactive
CCCCCCCC(=O)N1CCCCC1CC (centres undefined)	inactive
O=NNc1nc(-c2ccccn2)nc2ccccc12	inactive
NNC(=S)Nc1ccccc1	inactive
O=C1c2ccccc2C(=O)c2cc(O)ccc21	inactive
COc1cccc2c1C(=O)c1c(O)c3c(c(O)c1C2=O)C[C@@](O)(C(C)=O)C[C@@H]3OC1CC(N(CCO)Cc2ccccc2)C(O)C(C)O1 (some centres undefined)	active
CC(O[Si](c1ccccc1)(c1ccccc1)C(C)(C)C)[C@H](NC(=O)OC(C)(C)C)C(=O)O[Si](c1ccccc1)(c1ccccc1)C(C)(C)C (some centres undefined)	active
OC(c1ccccc1)(c1ccccc1)c1ccc[cH-]1.OC(c1ccccc1)(c1ccccc1)c1ccc[cH-]1.[Fe+2]	inactive
OCC(CCc1c[nH]c2ccccc12)c1c[nH]c2ccccc12 (centres undefined)	inactive
O=C1c2ccccc2C(=O)N1C(=NCc1ccccc1)c1ccccc1	inactive
O=C(N=Nc1c(O)[nH]c2ccccc12)C(O)(c1ccccc1)c1ccccc1	inactive
O=C1CSC2(CCN(CCCN3c4ccccc4Sc4ccc(Cl)cc43)CC2)N1	inactive
COc1ccc(NC(=O)CC(=O)n2nc(-c3ccccc3)c(N=Nc3ccc(C)cc3)c2-c2ccccc2)cc1	inactive
Cc1cccc2c(CBr)cc(=O)[nH]c12	inactive
Cc1ccc(C(=O)N2CCN(C(=O)c3ccc(C)cc3)c3ccccc32)cc1	inactive
CC(C)C(=O)/C=C/c1ccc(Cl)cc1Cl	inactive
O=S(=O)(NC1CCCCC1)c1ccc2c(c1)OCCOCCOCCOCCO2	inactive
CCNC(=O)COc1ccc(Cl)cc1Cl	inactive
FC(F)(F)COP1(OCC(F)(F)F)=NP(OCC(F)(F)F)(OCC(F)(F)F)=NP(c2ccccc2)(c2ccccc2)=N1	inactive
COc1ccc(-c2nc(N)n(C)c2SSc2c(-c3ccc(OC)cc3)nc(N)n2C)cc1	inactive
CN(C)N=Nc1ccc2[nH]c(=O)[nH]c2c1	inactive
C(=C/c1ccccc1)/C=N/Nc1ccccc1	inactive
COc1ccc(CN2CCCN(Cc3ccc(OC)cc3OC)C2c2cccc([N+](=O)[O-])c2O)c(OC)c1	inactive
O=C1OC2=C(CCc3nc(-c4ccccc4)sc32)C(N(c2ccccc2)c2ccccc2)C1(Cl)Cl (centres undefined)	inactive
OC(CCN1CCCCC1)(Cc1ccccc1)c1cccc(Cl)c1 (centres undefined)	inactive
CC(=O)OC1=CC2=CCC3C(CCC4(C)C(C(C)=O)CCC34)C2(C)CC1 (centres undefined)	inactive
N=c1scc(-c2ccccc2)n1/N=C/c1cccnc1	inactive
CCCCCCCCCCCCOC(=O)C[n+]1cccc(C(=O)Nc2ccccc2)c1	active
COC(=O)c1ccc(SCCC(=O)CCl)cc1	inactive
